system: UniProt:P05067
assay.procedure: Th-T (thioflavin-T) assay of Aβ42 aggregation
Type: biochemical
stated.conditions: time-course reading M97; Supplementary Fig. 47 source data
Answer each item with its documented Th-T fluorescence, mean of three wells.

The cases that follow already have their Th-T fluorescence, mean of three wells on record.
| molecule | result.value |
| --- | --- |
| C=C1CCC2C(C)(CC(=O)C=C(C)C)C(O)CCC2(C)C1Cc1c(OC)oc(CO)c(C)c1=O (stereo not shown) | 3.5997 |
| C=C1CC[C@@H]2[C@](C)(CC[C@H]3O[C@H](C=C(C)C)C[C@@]23C)[C@@H]1Cc1c(O)c(C)c(C)oc1=O | 3.037 |
| CC(C)=CCC/C(C)=C/CC/C(C)=C/CC/C(C)=C/Cc1c(O)c(C)c(C)oc1=O | 2.938 |

Could you share which Th-T fluorescence, mean of three wells value was measured for C=C1CCC2C(C)(CCC=C(C)C)C(O)CCC2(C)C1Cc1c(OC)oc(C)c(C)c1=O (stereo not shown) [Compound 11] ?
3.56

====

system: UniProt P05067
assay.procedure: Th-T (thioflavin-T) assay of Aβ42 aggregation
Format: biochemical
stated.conditions: reading M117; compound at 20 (head suffix _20)
Answer each item with its documented Th-T fluorescence, mean of three wells (Fig. 7a).
Answers are plain numbers.

| compound | system | result.value |
| --- | --- | --- |
| C=C1CC[C@@H]2[C@](C)(CC[C@H]3O[C@H](C=C(C)C)C[C@@]23C)[C@@H]1Cc1c(OC)oc(CO)c(C)c1=O | UniProt P05067 | 3.166 |
| C=C1CCC2C(C)(CCC=C(C)C)C(O)CCC2(C)C1Cc1c(OC)oc(C)c(C(=O)OC)c1=O (centres unmarked) | UniProt P05067 | 1.6485 |
| C=C1CCC2C(C)(CCC=C(C)C)C(O)CCC2(C)C1Cc1c(OC)oc(CO)c(C)c1=O (centres unmarked) | UniProt P05067 | 2.13 |

Quick request: Th-T fluorescence, mean of three wells (Fig. 7a) for each listed item, please.
1. C=C1CCC2C(C)(CCC=C(C)C)C(O)CCC2(C)C1Cc1c(OC)oc(CO)c(C(=O)OC)c1=O (centres unmarked)
2. C=C1CC[C@@H]2[C@](C)(CC[C@H]3O[C@H](C=C(C)C)C[C@@]23C)[C@@H]1Cc1c(OC)oc(CO)c(C(=O)OC)c1=O

1. 1.029
2. 0.9521

====

system: Aβ42 (Homo sapiens, UniProt P05067)
Sequence (P05067 672-713): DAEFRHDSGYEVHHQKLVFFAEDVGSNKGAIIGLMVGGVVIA
assay.procedure: Th-T (thioflavin-T) assay of Aβ42 aggregation
Assay type: biochemical
stated.conditions: column suffix _50; reading M93
Simple rule here: Fig. 7a Th-T reading, mean of three wells less than 1 is rule met, otherwise rule not met.

Some solved entries appear below for comparison.
| compound | classification |
| --- | --- |
| C=C1CC[C@@H]2[C@](C)(CC[C@H]3O[C@H](C=C(C)C)C[C@@]23C)[C@@H]1Cc1c(OC)oc(CO)c(C)c1=O | rule not met |
| C=C1CCC2C(C)(CCC=C(C)C)C(O)CCC2(C)C1Cc1c(OC)oc(CO)c(C)c1=O (centres unmarked) | rule not met |
| C=C1CCC2C(C)(CCC=C(C)C)C(O)CCC2(C)C1Cc1c(OC)oc(CO)c(C(=O)OC)c1=O (centres unmarked) | rule met |
| C=C1CCC2C(C)(CCC=C(C)C)C(O)CCC2(C)C1Cc1c(OC)oc(C)c(C(=O)OC)c1=O (centres unmarked) | rule not met |

Next:
In the record for `C=C1CC[C@@H]2[C@](C)(CC[C@H]3O[C@H](C=C(C)C)C[C@@]23C)[C@@H]1Cc1c(OC)oc(CO)c(C(=O)OC)c1=O` , is Fig. 7a Th-T reading, mean of three wells less than 1?
rule met
